The measurements presented in this section are drawn from ChEMBL document CHEMBL4229550.

Quick list: MIC per entry.
- Test system: Enterococcus faecalis
- RUN DESCRIPTION: Antibacterial activity against Enterococcus faecalis ATCC 349 incubated for 24 hrs under aerobic condition by MABA
- Assay type: functional
- RUN CONDITIONS: ATCC 349, 24 h, read-out: MIC100

>  <COMPOUND>
CC(=O)NC[C@H]1CN(c2ccc(N3CCOCC3)c(F)c2)C(=O)O1 [LINEZOLID]

>  <MIC>
> 25 µg/mL

$$$$
>  <COMPOUND>
CC[C@]1(C)C[C@@H](OC(=O)CSC(C)(C)CNC(=O)[C@H](N)CC(C)C)[C@]2(C)[C@H](C)CC[C@]3(CC[C@@H](O)[C@H]32)[C@@H](C)[C@@H]1O

>  <MIC>
> 25 µg/mL

$$$$
>  <COMPOUND>
C=C[C@]1(C)C[C@@H](OC(=O)CSC(C)(C)CNC(=O)[C@H](N)CC(C)C)[C@]2(C)[C@H](C)CC[C@]3(CCC(=O)[C@H]32)[C@@H](C)[C@@H]1O

>  <MIC>
> 25 µg/mL

$$$$

* * *

- RUN DESCRIPTION: Selectivity index, ratio of IC50 for African green monkey Vero cells to MIC100 for replicating Mycobacterium tuberculosis H37Rv by MABA
- Assay type: toxicity
- RUN CONDITIONS: read-out: Selectivity Index
PROPERTY LABEL: selectivity ratio

>  <SMILES>
CC[C@@H](CO)NCCN[C@@H](CC)CO

>  <PROPERTY LABEL>
selectivity ratio

>  <OBSERVED VALUE>
> 256

$$$$
>  <SMILES>
NNC(=O)c1ccncc1

>  <PROPERTY LABEL>
selectivity ratio

>  <OBSERVED VALUE>
> 2000

$$$$
>  <SMILES>
CC(=O)NC[C@H]1CN(c2ccc(N3CCOCC3)c(F)c2)C(=O)O1

>  <PROPERTY LABEL>
selectivity ratio

>  <OBSERVED VALUE>
> 333

$$$$
